Test system JAK2 (Homo sapiens, UniProt O60674), pIC50 listed for each of the compounds.
Answers are plain numbers, as −log10 of the molar value.

Guide cases for pIC50, answers given:
1. CCNC(=O)c1ccc(Nc2nccc(-c3ccc(NC(=O)[C@@H]4CC4(F)F)nc3)n2)cc1C [TDM-180984] :: 8.05
2. CNC(=O)c1ncc(Nc2nccc(-c3ccc(NC(=O)[C@@H]4CC4(F)F)nc3)n2)cc1C [TDM-180979] :: 7.48
3. CC(CO)c1ccc(Nc2nccc(-c3ccc(NC(=O)[C@@H]4CC4(F)F)nc3)n2)cn1 (stereo partly shown) [TDM-180987] :: 7.66

Proceeding to the next compound to report its pIC50.
pIC50 for Cc1cc(Nc2nccc(-c3ccc(NC(=O)[C@@H]4CC4(F)F)cc3)n2)cnc1C(N)=O [TDM-180974] ?
8.15
